# system: AT4G31550 (Arabidopsis thaliana, UniProt Q9SV15 228-325)
# Sequence (Q9SV15 228-325): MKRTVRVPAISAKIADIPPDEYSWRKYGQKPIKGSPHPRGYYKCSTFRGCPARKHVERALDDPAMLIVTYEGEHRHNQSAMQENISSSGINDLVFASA
# experiment.summary: DPI-ELISA; DPI-ELISA, streptavidin 384-well plate, 1-2 pmol biotinylated dsDNA per well, crude native E. coli extract, anti-His detection; buffer as in Brand et al. [46],; high values mean tight binding
# measurement.conditions: tags: C-terminal His (pET-DEST42); label: 5' biotin on forward strand; dsDNA, one strand shown
assay.readout: binding signal (absorbance)

> print(dat)
                  polymer.sequence  experimental.value
 1  AAAAAAAGTCTGCGGCTGCAGGGCGGAAAA                1.91
 2  AAAAAACCGTCTTATCTCTCGTCCCTAAAA               0.565
 3  AAAAAACTGCTTGCCCCTGTCTCCATAAAA                0.67
 4  AAAAAACACTGCACTATTGGGAGTTCAAAA               0.615
 5  AAAAAATCGCACTGCCGCCGATGGCTAAAA               0.625
 6  AAAAAAGCGCGCCCGCACTGTTAATAAAAA               0.635
 7  AAAAAATTCCGCGTGTATGTGTACGTAAAA                0.72
 8  AAAAAATCCCTGCTCCCCTGGTTCCTAAAA                0.45
 9  AAAAAAATTTTTAGTTTTAATTTTGGAAAA               0.615
10  AAAAAATTTGTTCGGGCTCATAACTGAAAA               0.595
11  AAAAAATCAAAACAACGATGCCGTTAAAAA                0.73
12  AAAAAAGCTCCCGTCTCTTAGTTCTAAAAA               0.695
13  AAAAAAAAGAGCCTGGGGGTTCGCATAAAA               0.655
14  AAAAAAACTCTCCGGGTACAATTGCAAAAA               0.605
15   AAAAAAAGCTTCTATAGCTCCATGGAAAA               0.515
16  AAAAAAGTTTCCTACTTGTGTCTGTGAAAA                0.53
17  AAAAAAATCATCCTATTGTTGCTGTCAAAA               0.665
18  AAAAAACACAGCATTAGGCTATCGGTAAAA               0.655
19  AAAAAACCTTCCCCCTCTTCTGCCTTAAAA               0.665
20  AAAAAATCGTAAATGCCCATAGCCGTAAAA               0.555
21  AAAAAATAATATCGATACTCATGCCCAAAA               0.685
22  AAAAAACTGGTGTATCTCCTCAATTAAAAA               0.635
23      AAAAAAATCCCACTTCATTCTAAAAA                 0.6
24  AAAAAATAGACCCTGACCCACCATTGAAAA                0.71
25  AAAAAATTTCTCCTTCTTTGTTCTTCAAAA                0.66
26  AAAAAACGCCTTATGCCTCCCGCTCGAAAA               0.675
27  AAAAAAAAGCTTCGGAGTCTTGAGAAAAAA               0.685
28  AAAAAACCCGGTTGGAGAAAATAATTAAAA                0.55
29  AAAAAAAACTGTCGCCCCCGGCTGGCAAAA               0.545
30  AAAAAAGTCGTCACGCACGTGAATACAAAA                1.15
31  AAAAAAACAGCTCGGTGCCACTGTGGAAAA                0.61
32          AAAAAACGGTAAGTCGACAAAA               0.545
33  AAAAAACGCAACTCCGGATGTGGGGTAAAA               0.545
34  AAAAAAACTCACGGCGTCACTATGGTAAAA               0.585
35  AAAAAACACGCCATTGACACTGGTAAAAAA                1.67
36  AAAAAACGTGCGCGTGCATGTCATCGAAAA               0.665
37     AAAAAATGACCAGGCCTCGAGCAAAAA               0.665
38  AAAAAAGGGGTCCTTTTCCAATGTCTAAAA               0.605
39  AAAAAATGGTACTCAGAGTTATAGACAAAA                0.66
40  AAAAAATTGCACCTGATACTAGGGTTAAAA               0.655
41  AAAAAAGTGCGTTCACGCTTGTATCTAAAA                0.69
42  AAAAAAGCTCGTCTCCGCCTCCTGCTAAAA               0.785
43  AAAAAATGAGAGAATTTCCGGTTCAGAAAA               0.575
44  AAAAAATATCATTGTTACCGTTGCTAAAAA               0.465
45  AAAAAAACTTCTGTCCCTGTTCCCGTAAAA                0.55
46  AAAAAAGTCCGCCCTTAATTCATATTAAAA                1.37
47  AAAAAAGTACATGCGTAGATAATGTTAAAA                0.59
48  AAAAAACGGGATTCGAAACTTTTTGTAAAA                0.54
49  AAAAAATGTCGGCTGTTAGGATATCGAAAA               0.625
50  AAAAAAACGCTCAAGTCTATCAGTAGAAAA                0.74
51  AAAAAACTCGACATAGAATGCGGAAAAAAA               0.655
52  AAAAAATCCTATCTTGGCTTTGGCCTAAAA                0.65
53  AAAAAAGGCTCCGGCCCCCAATCGCAAAAA                0.61
54  AAAAAATCTGTTCTCGTTTCCCCTTCAAAA               0.805
55  AAAAAACCGACCTGCACGTCGCTGCTAAAA               0.505
